The values you see were collected from patent US9790169B2.

Measured pIC50, listed per entry.
Test System: UniProtKB P14902
Protocol Details: Assessment of human IDO-1 inhibitory activity in Hela cells (Interferon-gamma stimulated HeLa cells, Ehrlich reagent, absorbance 490 nm)
Assay type: cell-based
Design: endogenous in cells; host or cells: HeLa cells stimulated with interferon-gamma
Test Context: Hela Human IDO-1 cellular assay
Method: Exemplary compounds were tested for inhibition of IDO activity. Assessment of Human IDO-1 Inhibitory Activity in Hela Cells HeLa cells were seeded at 20,000 cells per 30 μL per well with RPMI/phenol red free media containing 10% FBS in a 384-well tissue culture plate (black with clear bottoms). […] Compound treatment was stopped by adding 5 μl trichloroacetic acid to a final concentration of 3%. […] Absorbance at 490 nm was measured on Envision plate reader. […]
pIC50: −log10 of the molar value.

# Compound, pIC50
data = [
    ("CCC(CC(=O)O)c1ccc(N2CCNCC2)c(Nc2ccc(C#N)cc2)c1 (single isomer, unassigned) [Example 671 Enantiomer 1]", "< 7.30"),
    ("CCN(c1ccc([C@@H](COC)CC(=O)O)cc1Nc1ccc(C#N)c(F)c1)C1CCOCC1 (single isomer, unassigned)", "> 8.30"),
    ("COCC(CC(=O)O)c1ccc(N2CCOC[C@@H]2C(C)C)c(Nc2ccc(Cl)cc2)c1 (single isomer, unassigned) [Example 930]", "> 7.30"),
    ("CCN(c1ccc([C@@H](COC)CC(=O)O)cc1Nc1ccccc1C#N)C1CCOCC1 (single isomer, unassigned)", "< 7.30"),
    ("CCC(CC(=O)O)c1ccc(N2CCOC[C@H]2C(C)C)c(Nc2ccc(F)cc2)c1 (single isomer, unassigned)", "> 8.30"),
    ("COCC(CC(=O)O)c1ccc(N2C[C@@H](C)O[C@@H](C)C2)c(Nc2ccc(Cl)cc2)c1 (single isomer, unassigned)", "< 7.30"),
]

====

Measured IC50, listed per entry.
Test System: human IDO1 (Homo sapiens, UniProt P14902)
Sequence (P14902 whole entry): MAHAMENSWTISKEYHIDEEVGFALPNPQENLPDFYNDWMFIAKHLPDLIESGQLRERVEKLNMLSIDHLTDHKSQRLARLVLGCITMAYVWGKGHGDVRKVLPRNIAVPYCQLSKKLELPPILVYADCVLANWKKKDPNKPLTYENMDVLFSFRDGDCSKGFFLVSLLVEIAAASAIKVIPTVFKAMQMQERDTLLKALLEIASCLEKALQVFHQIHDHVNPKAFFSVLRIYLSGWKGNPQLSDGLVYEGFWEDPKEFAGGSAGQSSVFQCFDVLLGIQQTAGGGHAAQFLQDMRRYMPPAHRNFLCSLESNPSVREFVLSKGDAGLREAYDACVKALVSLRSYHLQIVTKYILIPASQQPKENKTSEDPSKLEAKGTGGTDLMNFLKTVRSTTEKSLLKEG
Protocol Details: Assessment of human IDO-1 inhibitory activity in HEK cells (human IDO1/HEK293 cells, kynurenine read-out with Ehrlich reagent, absorbance 490 nm)
Assay type: cell-based
Parameters: expressed in transfected cells
Test Context: HEK Human IDO-1 cellular assay
Metric Name: IC50

# Molecule, Metric Name, Readout Value
measured = [
    ("CC[C@H](CC(=O)O)c1ccc(N(CC(C)(C)O)C2CCOCC2)c(NC(=O)Nc2ccc(C)cc2)c1 (single isomer, unassigned)", "IC50", "> 0.05 µM"),
    ("CCC(CC(=O)O)c1ccc(N2CCC[C@H]2C(C)(C)O)c(Nc2ccc3c(c2)OC(F)(F)O3)c1 (single isomer, unassigned) [Example 837]", "IC50", "> 0.05 µM"),
    ("CCC(CC(=O)O)c1ccc(N(CC(C)C)C2CCCCC2)c(NC(=O)C(F)(F)c2ccc(C)cc2)c1 (racemic)", "IC50", "> 0.05 µM"),
    ("CCC(CC(=O)O)c1ccc(N2CC[C@H](O)C2)c(Nc2ccc(Cl)cc2)c1 (single isomer, unassigned)", "IC50", "> 0.05 µM"),
    ("CCC(CC(=O)O)c1ccc(N2C[C@@H]3C[C@H]2CN3C(=O)OC(C)(C)C)c(Nc2ccc(C)cc2)c1 (single isomer, unassigned) [Example 445]", "IC50", "< 0.005 µM"),
    ("COCC(CC(=O)O)c1cc(F)c(N(CC(C)C)CC(C)C)c(NC(=O)Nc2cc(C)on2)c1 (single isomer, unassigned)", "IC50", "< 0.05 µM"),
]
